The measurements presented in this section are drawn from PubChem BioAssay (NCI).

# methodSummary: NCI Yeast Anticancer Drug Screen. Data for the mlh1 rad18 strain (AID 175)
# testSettings: S. cerevisiae mlh1 rad18 strain growth inhibition; at 50.0 µM; stronger effect = higher value
This is part of a sample that, as a whole, favours compounds with a hit. Of some 79,000 tested, about 15% had one in any assay.
propertyName: growth inhibition (%)

Cc1cccc(C)c1NC(=S)/N=C\c1c(O)[nH]c(=O)[nH]c1=O: -57.2
O=C(OCc1ccccc1)n1nnc2ccccc21: 2.45
CC1(C)OC(=O)CC1=O: -3.2
CC(C)(N)CO[C@H]1C[C@H]2CC[C@@]1(C)C2(C)C: -6.15

====

# methodSummary: NCI Yeast Anticancer Drug Screen. Data for the sgs1 mgt1 strain (AID 161);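 note: 0% = growth of cultures given vehicle only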
# testSettings: S. cerevisiae sgs1 mgt1 strain, at 50.0 µM, stronger effect = higher value
# Description: Growth inhibition of yeast strains with defined genetic alterations is measured as a screen for potential anti-cancer activity. Selected strains with alterations in DNA damage repair or cell cycle control were exposed to compounds and growth inhibition was measured relative to vehicle treated controls. The strain used in this assay is sgs1 mgt1
The panel holds about 79,000 compounds, 15% with a hit somewhere; the sample as a whole holds those more often.
propertyName: growth inhibition (%)

NNc1ncnc2nc[nH]c12: -14.3
CC(=O)Oc1c(Cl)cccc1-c1ccccc1: 28.1
NNc1ncnc2c1ncn2C1OC(CO)C(O)C1O (stereo not drawn): 0.15
OC1Cc2ccccc2C1: -17.6
CNc1ccccc1C(N)=O: -10.3
Cc1ccc2nc(N)nnc2c1: 3.9
C=C1C(=O)C2CCN1CC2: -15.8
C[n+]1c(/C=C\C=C\N2CCCCC2)sc2ccccc21: 34.4
NS(=O)(=O)c1cc(=O)[nH]c(=O)[nH]1: -0.5
CC(c1ccccc1)N(C)C (stereo not drawn): 0.4
Cc1cc2nc(C)c(C)nc2cc1C: -27.2
C=CCc1cc(OC)c(OC)c(OC)c1: -16.3
COc1ccc(NNS(=O)(=O)O)cc1: 21.7
O=C(NCc1ccco1)Nc1cccc2c(NC(=O)NCc3ccco3)cccc12: 2.6
CCN(CC)CCOC(=O)Nc1c(C(C)C)cccc1C(C)C: 14.3
COc1ccc(/C=N/NC(=O)COCC(=O)N/N=C/c2ccc(OC)cc2)cc1: -15.4
CCCCCCCCCCCCCCCCCC(=O)NCCNC(=O)CCCCCCCCCCCCCCCCC: -1.15
Cc1ccnc(Nc2nc3ccccc3[nH]2)n1: 4.5
CCN(CC)CCCC(C)NC(=S)N/N=C(\C)c1ccccn1 (stereo not drawn): 41
Nc1c(O)c(S(=O)(=O)O)c(O)c2c1C(=O)c1ccccc1C2=O: 31.1
CCCCn1cnc2c(=O)[nH]cnc21: -5.15
N=C(N)c1nn(C2OC(CO)C(O)C2O)c2nc[nH]c(=O)c12 (stereo not drawn): 10.2
CCOC(=O)CNC: -12.7
COC(=O)c1cccc([N+](=O)[O-])c1: -4.7
Nc1ccn(C2OC(CO)C(O)C2F)c(=O)n1 (stereo not drawn): 11.9
CCC(=O)Oc1ccc2ccccc2c1: 28.5
O=C(CC(CC(=O)c1ccccc1)c1ccccn1)c1ccccc1: -28.1
O=C(Oc1ccccc1Cl)c1ccc(Cl)cc1Cl: 24.9
O=C(c1cccc(C(=O)c2ccc3c4c(cccc24)C(=O)N(c2ccccc2)C3=O)c1)c1ccc2c3c(cccc13)C(=O)N(c1ccccc1)C2=O: -23.1
Cc1[nH]c(=S)[nH]c(=O)c1C: -35.6
CCN(C(=O)Nc1ccccc1Cl)c1ccccc1: 8.8
O=C(N/N=C\c1ccc(Cl)cc1Cl)c1ccncc1: 5.15
CCCCc1ccc2nc(NC(=O)OC)[nH]c2c1: 13.6
